- measuredOn: Cytochrome P450 2D6 (Homo sapiens)
- measurementProtocol: Cytochrome P450 Family 2 Subfamily D Member 6 (CYP2D6) small molecule antagonists: luciferase reporter qHTS assay (AID 1671196); further: nearly all actives have a fitted effect of over 50% in size; further: potency means the concentration at half of the fitted maximal effect
- conditionParameters: P450-Glo CYP2D6 enzyme assay, luciferin luminescence, 1 h; series mostly up to 115 µM
- Source text: U.S. Tox21 Program National Center for Advancing Translational Sciences [NCATS] U.S. Environmental Protection Agency [EPA] National Institutes of Environmental Health Sciences [NIEHS] National Toxicology Program [NTP] U.S. Food and Drug Administration [FDA] […] The luciferin products formed are detected with a luciferin detection reagent, and the amount of light produced is proportional to CYP activity. […]
Results filed as inconclusive are left out. The source made the active and inactive calls. The call rests on the fitted dose curve; in most records, active means well fitted inhibition curve with a large enough effect in the repeat runs; inconclusive means weak or mixed curves; inactive means no such curve, though single readings can be large or run the other way.
observable: Potency

O=C1c2ccccc2C(=O)C1c1nc2ccccc2c(Br)c1O; inactive
O=c1[nH]ncc2ccccc12; inactive
O=C(OCC(O)CO)c1ccccc1Nc1ccnc2cc(Cl)ccc12 (stereo unspecified); 13.8 µM (active)
C=C1CCC2CC1C2(C)C (stereo unspecified); inactive
CC(C)Nc1cccnc1N1CCN(C(=O)c2cc3cc(NS(C)(=O)=O)ccc3[nH]2)CC1; 5.49 µM (active)

Q) Look at this molecule and give its reported Potency. `O=c1[nH]c2ccc(Cl)cc2o1`
A) inactive

Q) Entry to check: `COc1cc(Nc2c(C#N)cnc3cc(OCCCN4CCN(C)CC4)c(OC)cc23)c(Cl)cc1Cl`
A) inactive

Q) Entry to check: `Cc1ccc(Cl)c(Nc2ccccc2C(=O)O)c1Cl`
A) inactive

Q) Entry to check: `FC(F)(F)c1ccccc1Cl`
A) 46 µM (active)

Q) Entry to check: `CO/N=C(/C(=O)N[C@@H]1C(=O)N2C(C(=O)O)=C(COC(N)=O)CS[C@H]12)c1ccco1`
A) inactive

Q) Entry to check: `O=[N+]([O-])c1ccc(Nc2ccc(Nc3ccccc3)c(S(=O)(=O)O)c2)c([N+](=O)[O-])c1`
A) inactive

* * *

- measurementProtocol: qHTS assay to identify small molecule antagonists of the farnesoid-X-receptor (FXR) signaling pathway - cell viability counter screen (AID 743221); further: nearly all actives have a fitted effect of over 50% in size
- conditionParameters: FXR-bla HEK293T viability, CellTiter-Glo luminescence, 16 h; series mostly up to 62.6 µM
Results filed as inconclusive are left out. Activity calls are given as the source filed them. Calls come from the whole dose curve; as a rule, active = well fitted cell-killing curve with a large enough effect in the repeat runs (not every such curve was filed as active); inconclusive = weak or mixed curves, or effect the other way; inactive = no such curve, though single readings can be large or run the other way.
Select the matching outcome among active, inactive

COC(=O)C1=C(C)NC(C)=C(C(=O)O[C@@H]2CCCN(Cc3ccccc3)C2)[C@@H]1c1cccc([N+](=O)[O-])c1; inactive
C[C@@H](O[C@H]1OCCN(Cc2n[nH]c(=O)[nH]2)[C@H]1c1ccc(F)cc1)c1cc(C(F)(F)F)cc(C(F)(F)F)c1; active
COc1cc(C(=O)NCCCCCC(=O)O)cc(OC)c1OC; inactive
Oc1cccc(Nc2ccccc2)c1; inactive

Q) Hi, sorry to bother you, what did the test record for `Cc1ccccc1N=C(N)Nc1ccccc1C` ?
A) inactive

Q) Entry to check: `O=C1NCCN1CCO`
A) inactive

Q) Entry to check: CC1CC(OC(=O)C(O)c2ccccc2)CC(C)(C)N1C (configuration not stated)
A) inactive

Q) Entry to check: CCCCCC[C@@H](O)C/C=C\CCCCCCCC(=O)OCC(O)CO (some centres not stated)
A) inactive

* * *

- measuredOn: Cytochrome P450 2C9 (Homo sapiens)
- measurementProtocol: Cytochrome P450 Family 2 Subfamily C Member 9 (CYP2C9) small molecule antagonists: luciferase reporter qHTS assay (AID 1671198); further: nearly all actives have a fitted effect of over 50% in size
- conditionParameters: P450-Glo CYP2C9 enzyme assay, luciferin luminescence; series mostly up to 115 µM
Records with an inconclusive call do not appear. The source made the active and inactive calls. Calls follow the shape of the dose curve; as a rule, active = well fitted inhibition curve with a large enough effect in the repeat runs; inconclusive = weak or mixed curves; inactive = no such curve, though single readings can be large or run the other way.
Select the matching outcome among active, inactive

Example entries and their recorded answers appear below.
COc1cc(C(=O)NC2CCN(C)CC2)ccc1Nc1ncc2c(n1)N(C1CCCC1)CC(F)(F)C(=O)N2C; active
C=CC(=O)OCC1CC2CC1C1CCC(COC(=O)C=C)C21 (configuration not stated); active
O=c1[nH]ncc2ccccc12; inactive
CCC(C)COC(C)=O (configuration not stated); inactive
Oc1ccc(Cl)c2cccnc12; inactive
O=[N+]([O-])c1cc(C2CCCCC2)c(O)c([N+](=O)[O-])c1; active

Below: the item to evaluate.
Q) Hi, sorry to bother you, what did the test record for `CCCC(=O)C(=O)O` ?
A) inactive
